Attribution: patent US20090149458A1

# Test system: human TOR (Homo sapiens)
# Construct: FLAG
# Protocol details: human TOR kinase assay with purified enzyme, DELFIA format
# Test context: FLAG-TOR, 100 μM ATP, His6-S6K substrate
pIC50: −log10 of the molar value.

# Molecule, Reading qualifier, pIC50
records = [
    ("CN1CCC(c2c[nH]c3c(N4CCOCC4)nc(-c4cccc(O)c4)nc23)CC1 [Example 30]", "=", 5.43),
    ("O=C1COCCN1c1nc(-c2cccc(O)c2)nc2cc[nH]c12 [Example 48]", "=", 6.30),
    ("OCc1cccc(-c2nc(N3CCOCC3)c3[nH]cc(CNCc4cccnc4)c3n2)c1 [Example 9]", "=", 5.26),
    ("CN(C)CCNC(=O)Nc1cccc(-c2nc(N3CCOCC3)c3[nH]ccc3n2)c1 [Example 40]", "<", 5.40),
    ("Oc1cccc(-c2nc(N3CCOCC3)c3[nH]cc(C4CCN(Cc5ccc(F)nc5)CC4)c3n2)c1 [Example 39]", "=", 5.90),
    ("Oc1cccc(-c2nc(N3CCOCC3)c3[nH]cc(C4CCN(Cc5ccc(Cl)nc5)CC4)c3n2)c1 [Example 35]", "=", 6.13),
    ("OCc1cccc(-c2nc(N3CCOCC3)c3[nH]cc(C4=CCNCC4)c3n2)c1 [Example 24]", "=", 5.47),
    ("OCc1cccc(-c2nc(N3CCOCC3)c3[nH]cc(CN4CCNCC4)c3n2)c1 [Example 11]", "=", 5.37),
    ("Oc1cccc(-c2nc(N3CCOCC3)c3[nH]cc(C4CCN(C5CCCCC5)CC4)c3n2)c1 [Example 31]", "=", 6.43),
    ("Oc1cccc(-c2nc(N3CCOCC3)c3[nH]cc(C4CCN(Cc5ccccn5)CC4)c3n2)c1 [Example 38]", "=", 6.22),
    ("O=C(NCCCO)Nc1cccc(-c2nc(N3CCOCC3)c3[nH]ccc3n2)c1 [Example 41]", "<", 5.40),
    ("Oc1cccc(-c2nc(N3CCOCC3)c3[nH]cc(C4CCN(Cc5ccco5)CC4)c3n2)c1 [Example 27]", "=", 5.56),
    ("C1=C(c2c[nH]c3c(N4CCOCC4)nc(-c4cccc(OCc5ccccc5)c4)nc23)CCNC1 [Example 21]", "=", 5.15),
    ("O=C(NCCCn1ccnc1)Nc1cccc(-c2nc(N3CCOCC3)c3[nH]ccc3n2)c1 [Example 42]", "<", 5.40),
    ("Oc1cccc(-c2nc(N3CCOCC3)c3[nH]cc(C4CCN(Cc5ccccc5F)CC4)c3n2)c1 [Example 32]", "=", 6.48),
]

---

# Test system: human TOR (Homo sapiens, UniProt P42345)
# Construct: FLAG
# Protocol details: human TOR kinase assay with purified enzyme, DELFIA format;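 also: 2 h kinase reaction at room temperature, phosphorylation of S6K at T389 detected with a europium-labelled antibody after plate capture, DMSO vehicle as control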
# Test context: FLAG-TOR, 100 μM ATP, His6-S6K substrate
pIC50: −log10 of the molar value.

# Cpd smiles, Reading qualifier, pIC50
rows = [
    ("CC(C)CN1CCC(c2c[nH]c3c(N4CCOCC4)nc(-c4cccc(O)c4)nc23)CC1", "=", 5.50),
    ("Oc1cccc(-c2nc(N3CCOCC3)c3[nH]cc(CNCc4cccnc4)c3n2)c1", "<", 5.40),
    ("CC(C)(C)OC(=O)NCCN1CCC(c2c[nH]c3c(N4CCOCC4)nc(-c4cccc(O)c4)nc23)CC1", "=", 6.24),
    ("Oc1cccc(-c2nc(N3CCOCC3)c3[nH]cc(C4CCN(Cc5ccc[nH]5)CC4)c3n2)c1", "=", 6.02),
    ("O=C(NCc1cccnc1)Nc1cccc(-c2nc(N3CCOCC3)c3[nH]ccc3n2)c1", "<", 5.40),
    ("Oc1cccc(-c2nc(N3CCOCC3)c3[nH]cc(CN4CCCC4)c3n2)c1", "=", 5.49),
    ("Oc1cccc(-c2nc(N3CCOCC3)c3[nH]cc(CN4CCN(c5ncccn5)CC4)c3n2)c1", "=", 5.70),
    ("OCc1cccc(-c2nc(N3CCOCC3)c3[nH]cc(CNCCN4CCCCC4)c3n2)c1", "=", 4.95),
    ("Cc1cccc(-c2nc(N3CCOCC3)c3[nH]ccc3n2)c1", "=", 5.30),
    ("Nc1cccc(-c2nc(N3CCOCC3)c3[nH]ccc3n2)c1", "=", 6.37),
    ("CNC(=O)Nc1ccc(-c2nc(N3CCOCC3)c3[nH]ccc3n2)cc1", "=", 6.66),
    ("CN1CCN(Cc2c[nH]c3c(N4CCOCC4)nc(-c4cccc(CO)c4)nc23)CC1", "=", 5.11),
    ("CN(C)Cc1c[nH]c2c(N3CCOCC3)nc(-c3cccc(O)c3)nc12", "=", 5.48),
    ("Cn1cc(CN2CCCC2)c2nc(-c3cccc(CO)c3)nc(N3CCOCC3)c21", "<", 5.40),
    ("OCc1cccc(-c2nc(N3CCOCC3)c3[nH]cc(CN4CCN(Cc5ccccc5)CC4)c3n2)c1", "=", 5.24),
    ("CCN(CC)Cc1c[nH]c2c(N3CCOCC3)nc(-c3cccc(CO)c3)nc12", "=", 6.59),
    ("Cn1ccc2nc(-c3cccc(CO)c3)nc(N3CCOCC3)c21", "<", 5.40),
]
